assay: Phase 1 pharmacokinetics of ilorasertib in plasma
Type: in vivo, human
test-settings: human, plasma, po, 240 mg
quantity-measured: AUC(0-inf) (ng·h/mL)
// units = ng·h/mL; emit number, no label

Task item: Fill in: AUC(0-inf) of Nc1ncc(-c2cnn(CCO)c2)c2scc(-c3ccc(NC(=O)Nc4cccc(F)c4)cc3)c12 [Ilorasertib] is ___
Reply: 4190

* * *

assay: Phase 1 pharmacokinetics of ilorasertib in plasma
Type: in vivo, human
test-settings: human, plasma, iv, 32 mg, Tmax, arm D, IV infusion, 32 mg, day 1, N=4, mean ± SD
quantity-measured: Tmax (h)
// units = h; emit number, no label

Task item: Fill in: Tmax of Nc1ncc(-c2cnn(CCO)c2)c2scc(-c3ccc(NC(=O)Nc4cccc(F)c4)cc3)c12 is ___
Reply: 4.1
